Target: human-CD73 (Trp27-Lys547, His-tag) (Homo sapiens)
Construct: human-CD73 (Trp27-Lys547, His-tag); His-tag
Sequence (P21589 27-547): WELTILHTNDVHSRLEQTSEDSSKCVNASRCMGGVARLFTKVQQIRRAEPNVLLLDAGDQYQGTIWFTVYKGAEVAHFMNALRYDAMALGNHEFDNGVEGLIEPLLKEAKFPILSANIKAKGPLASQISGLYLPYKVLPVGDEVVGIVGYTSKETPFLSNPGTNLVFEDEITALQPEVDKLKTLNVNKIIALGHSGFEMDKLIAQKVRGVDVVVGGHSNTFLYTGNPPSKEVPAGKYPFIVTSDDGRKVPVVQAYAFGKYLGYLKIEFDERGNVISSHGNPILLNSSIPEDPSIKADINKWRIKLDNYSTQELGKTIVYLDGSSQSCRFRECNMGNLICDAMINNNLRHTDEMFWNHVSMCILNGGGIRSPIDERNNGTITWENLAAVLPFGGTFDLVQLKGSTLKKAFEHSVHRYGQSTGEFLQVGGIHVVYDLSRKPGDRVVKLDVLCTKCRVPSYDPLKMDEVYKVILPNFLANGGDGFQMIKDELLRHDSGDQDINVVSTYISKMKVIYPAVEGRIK
Test: CD73 biochemical assay (colorimetric, Malachite Green phosphate detection)
Settings: 20 μM compound; 2 nM CD73, 50 μM AMP; read-out: % inhibition at 20 μM (Percent inhibition data in CD73)
Give measured inhibition at 20 µM for each item. Keep answers brief.
Please respond with the number in % and leave the unit unwritten.

Name the reported inhibition at 20 µM value associated with the compound CN(CCCc1ccc(NS(=O)(=O)c2cc(Cl)c(O)c(C(N)=O)c2)cc1)c1nc(N)n2nc(-c3ccco3)nc2n1 [Example A17]
95

Name the reported inhibition at 20 µM value associated with the compound NC(=O)c1cc(S(=O)(=O)Nc2ccc(CCCNc3nc(N)n4nc(-c5ccco5)nc4n3)cc2)cc(Cl)c1O [Example A11]
98

Name the reported inhibition at 20 µM value associated with the compound NC(=O)c1cc(S(=O)(=O)Nc2ccc(CCNc3cc(N)n4nc(-c5ccco5)nc4n3)nc2)cc(Cl)c1O [Example E2]
94

Name the reported inhibition at 20 µM value associated with the compound NC(=O)c1cc(S(=O)(=O)Nc2ccc(CCCNc3cc(N)n4nc(-c5ccco5)cc4n3)cc2)cc(Cl)c1O [Example A24]
92

Name the reported inhibition at 20 µM value associated with the compound Nc1nc(NCCCc2ccc(NS(=O)(=O)c3cc(Cl)c4oc(=O)[nH]c(=O)c4c3)cc2)nc2nc(-c3ccco3)nn12 [Example B4]
99

Name the reported inhibition at 20 µM value associated with the compound NC(=O)c1cc(S(=O)(=O)Nc2ccc(CCCCNc3nc(N)n4nc(-c5ccco5)nc4n3)cc2)cc(Cl)c1O [Example A18]
87

Name the reported inhibition at 20 µM value associated with the compound NC(=O)c1cc(S(=O)(=O)Nc2ccc(CCCNc3nc(N)n4nc(-c5ccco5)nc4n3)cc2F)cc(Cl)c1O [Example A15]
96

Name the reported inhibition at 20 µM value associated with the compound NC(=O)c1cc(S(=O)(=O)Nc2cccc(CNc3nc(N)n4nc(-c5ccco5)nc4n3)c2)cc(Cl)c1O [Example A1]
91

Measured values drawn from patent US20230027075A1 for this set.
